This collection of values is drawn from patent US12565500B2.

Data export: pIC50 values recorded with BTK (Homo sapiens (Human)).
Sequence (Q06187 whole entry): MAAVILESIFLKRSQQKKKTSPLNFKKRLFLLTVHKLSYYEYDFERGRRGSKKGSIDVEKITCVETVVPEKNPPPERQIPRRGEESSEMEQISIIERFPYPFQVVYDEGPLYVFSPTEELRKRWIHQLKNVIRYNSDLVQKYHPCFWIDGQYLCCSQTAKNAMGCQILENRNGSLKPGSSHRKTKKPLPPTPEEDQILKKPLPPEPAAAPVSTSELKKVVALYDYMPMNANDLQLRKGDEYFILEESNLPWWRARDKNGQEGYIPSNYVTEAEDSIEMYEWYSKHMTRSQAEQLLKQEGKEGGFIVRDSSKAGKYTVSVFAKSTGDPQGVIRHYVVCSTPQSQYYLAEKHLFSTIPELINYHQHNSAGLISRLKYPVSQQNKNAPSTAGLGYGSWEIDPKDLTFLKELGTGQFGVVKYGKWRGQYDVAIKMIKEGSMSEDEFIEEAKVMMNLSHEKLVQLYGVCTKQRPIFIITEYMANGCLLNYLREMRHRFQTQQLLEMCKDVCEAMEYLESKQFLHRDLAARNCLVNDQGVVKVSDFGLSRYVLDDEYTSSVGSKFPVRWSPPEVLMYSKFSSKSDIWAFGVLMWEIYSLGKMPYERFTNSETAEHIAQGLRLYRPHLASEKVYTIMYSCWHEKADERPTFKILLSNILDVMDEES
pIC50: −log10 of the molar value.

// query Item Cc1cc(-c2ncnn3cccc23)ccc1CN1CCN(C2CC(F)(F)C2)C(C)C1=O (stereo not shown) [Compound 3] with BTK (Homo sapiens (Human)) - pIC50?
// result 5.00 to 6.00

// query Subsequent entry: Cc1cc(-c2ncnn3cccc23)ccc1CN1CCN(CC(C)C)C(C)C1=O (stereo not shown) [Compound 2]
// result 6.00 to 8.00

// query Subsequent entry: Cc1cc(-c2ncnn3cccc23)ccc1CN1CCNC(C)C1=O (stereo not shown) [Compound 1]
// result 5.00 to 6.00

// query Subsequent entry: Cc1cc(-c2ncnn3cc(-c4cnn(C)c4)cc23)ccc1CN1CCN(CC(C)C)C(C)C1=O (stereo not shown) [Compound 4]
// result 8.00 to 9.00
